# TARGET_UNDER_TEST: vanilloid receptor (Rattus norvegicus, UniProt O35433)
# Construct: DRG nerve cells from the primary culture of 2 days were equilibrated; endogenous in cells
# Sequence (O35433 whole entry): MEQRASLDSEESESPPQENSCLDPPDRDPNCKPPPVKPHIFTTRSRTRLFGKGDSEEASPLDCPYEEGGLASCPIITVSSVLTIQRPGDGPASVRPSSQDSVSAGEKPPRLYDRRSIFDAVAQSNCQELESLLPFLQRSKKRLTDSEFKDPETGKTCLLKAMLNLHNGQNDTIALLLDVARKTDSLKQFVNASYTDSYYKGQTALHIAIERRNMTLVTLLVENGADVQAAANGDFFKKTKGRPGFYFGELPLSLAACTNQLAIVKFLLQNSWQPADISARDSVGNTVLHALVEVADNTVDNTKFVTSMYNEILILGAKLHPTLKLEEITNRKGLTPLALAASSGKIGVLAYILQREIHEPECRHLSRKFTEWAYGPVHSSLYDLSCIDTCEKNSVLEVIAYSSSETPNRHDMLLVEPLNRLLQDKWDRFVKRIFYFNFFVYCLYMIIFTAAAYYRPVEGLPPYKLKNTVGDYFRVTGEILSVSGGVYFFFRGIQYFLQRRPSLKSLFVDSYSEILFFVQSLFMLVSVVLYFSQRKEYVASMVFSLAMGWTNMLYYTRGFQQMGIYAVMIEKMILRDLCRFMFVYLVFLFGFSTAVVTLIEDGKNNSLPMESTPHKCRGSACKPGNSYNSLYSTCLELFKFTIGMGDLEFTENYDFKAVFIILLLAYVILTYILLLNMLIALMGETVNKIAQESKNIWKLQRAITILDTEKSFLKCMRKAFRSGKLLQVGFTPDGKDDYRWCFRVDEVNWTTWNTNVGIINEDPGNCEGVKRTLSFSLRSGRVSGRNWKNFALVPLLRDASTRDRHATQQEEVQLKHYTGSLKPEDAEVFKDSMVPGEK
# ASSAY_COMMENT: 45Ca influx test (antagonist calcium uptake test) in rat DRG neurons stimulated with capsaicin
# CONDITION_INFO: neonatal SD rat DRG neurons; capsaicin 0.5 μM; 45Ca
Overview of reported pIC50 across a group of compounds:
# pIC50 = -log10(concentration in molar units)

> print(dat)
                      smiles.representation  quantity.measured  value.observed
1  C[C@@H](NC(=O)c1coc(-c2cccc(C(F)(F)F)c2)n1)c1cc(F)c(NS(C)(=O)=O)c(F)c1              pIC50            6.44

Briefly, pIC50 measured for "C[C@@H](NC(=O)c1coc(Oc2ccc3c(c2)CCC3)n1)c1cc(F)c(NS(C)(=O)=O)c(F)c1" : 5.72

Briefly, pIC50 measured for "CC(C)Oc1cccc(Oc2nc(C(=O)N[C@H](C)c3cc(F)c(NS(C)(=O)=O)c(F)c3)co2)c1" : 5.92
